Test System: Short transient receptor potential channel 5 (Mus musculus) (UniProt Q9QX29)
Sequence (Q9QX29 whole entry): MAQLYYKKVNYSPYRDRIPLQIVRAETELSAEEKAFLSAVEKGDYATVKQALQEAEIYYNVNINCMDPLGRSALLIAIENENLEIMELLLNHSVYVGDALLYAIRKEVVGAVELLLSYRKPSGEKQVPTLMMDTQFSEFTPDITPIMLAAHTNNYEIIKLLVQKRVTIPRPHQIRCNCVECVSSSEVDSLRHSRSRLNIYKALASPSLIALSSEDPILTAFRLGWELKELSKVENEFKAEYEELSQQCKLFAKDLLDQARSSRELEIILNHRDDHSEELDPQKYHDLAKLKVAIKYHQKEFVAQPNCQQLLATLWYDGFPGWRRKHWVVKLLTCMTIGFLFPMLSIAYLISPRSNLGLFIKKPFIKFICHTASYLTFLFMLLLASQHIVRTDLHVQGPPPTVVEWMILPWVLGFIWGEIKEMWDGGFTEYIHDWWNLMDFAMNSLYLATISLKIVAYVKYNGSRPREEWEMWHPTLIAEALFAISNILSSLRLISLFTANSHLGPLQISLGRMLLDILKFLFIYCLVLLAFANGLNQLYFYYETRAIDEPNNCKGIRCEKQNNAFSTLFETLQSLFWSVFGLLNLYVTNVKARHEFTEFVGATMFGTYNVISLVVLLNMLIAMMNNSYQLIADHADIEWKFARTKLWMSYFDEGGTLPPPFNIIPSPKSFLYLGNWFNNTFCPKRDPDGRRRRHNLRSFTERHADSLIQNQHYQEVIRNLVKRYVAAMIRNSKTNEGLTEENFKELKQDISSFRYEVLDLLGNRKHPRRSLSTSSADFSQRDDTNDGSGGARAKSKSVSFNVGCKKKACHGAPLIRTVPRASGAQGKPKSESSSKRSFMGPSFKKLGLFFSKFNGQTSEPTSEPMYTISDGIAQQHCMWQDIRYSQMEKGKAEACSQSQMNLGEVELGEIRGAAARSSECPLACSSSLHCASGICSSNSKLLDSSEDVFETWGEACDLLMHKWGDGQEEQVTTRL
Assay Name: Inhibition of mouse TRPC5 expressed in Flp-In-T-Rex-HEK293 cells assessed as reduction in […]-induced channel current at 3 uM by automated patch clamp method relative to control
Format: cell-based
Measured Property: inhibition (%)

• c1coc(CNc2nc3ccccc3n2CC2CCCO2)c1 (configuration not stated) = 65.2
• COc1ccc(Cn2c(NCc3ccco3)nc3ccccc32)cc1F = 88.4
• CN(Cc1ccco1)c1nc2ccccc2n1Cc1ccccc1 = 41.7

I = Cc1cccc(Cn2c(NCc3ccco3)nc3ccccc32)c1
II = Fc1ccccc1Cn1c(NCc2ccco2)nc2ccccc21
III = Cc1ncc(CNc2nc3ccccc3n2Cc2ccccc2)s1
IV = c1ccc(Cn2c(Nc3cccnc3)nc3ccccc32)cc1
Prompt: Endpoint returns the given compounds ordered by ascending inhibition. Enter labels, ranked according to the request.
Response: IV, III, II, I
